Value source: patent US11873295B2

Please go through the items and note down their IC50.
molecular target: human full length PIK3KA Wild-type (p110α/p85α complex) (Homo sapiens, UniProt P42336); construct: Recombinant, catalytically active human full length PIK3KA Wild-type and H1047R mutant were purchased as 1:1 complex; 6xHis (N); purchased EMD Millipore Sigma 14-602M; assay: PI3K-alpha kinase (PIK3CA) biochemical activity, wild-type, ADP-Glo; settings: PI3K-α (PIK3CA) biochemical, Soy PI lipid substrate
Sequence (P42336 whole entry): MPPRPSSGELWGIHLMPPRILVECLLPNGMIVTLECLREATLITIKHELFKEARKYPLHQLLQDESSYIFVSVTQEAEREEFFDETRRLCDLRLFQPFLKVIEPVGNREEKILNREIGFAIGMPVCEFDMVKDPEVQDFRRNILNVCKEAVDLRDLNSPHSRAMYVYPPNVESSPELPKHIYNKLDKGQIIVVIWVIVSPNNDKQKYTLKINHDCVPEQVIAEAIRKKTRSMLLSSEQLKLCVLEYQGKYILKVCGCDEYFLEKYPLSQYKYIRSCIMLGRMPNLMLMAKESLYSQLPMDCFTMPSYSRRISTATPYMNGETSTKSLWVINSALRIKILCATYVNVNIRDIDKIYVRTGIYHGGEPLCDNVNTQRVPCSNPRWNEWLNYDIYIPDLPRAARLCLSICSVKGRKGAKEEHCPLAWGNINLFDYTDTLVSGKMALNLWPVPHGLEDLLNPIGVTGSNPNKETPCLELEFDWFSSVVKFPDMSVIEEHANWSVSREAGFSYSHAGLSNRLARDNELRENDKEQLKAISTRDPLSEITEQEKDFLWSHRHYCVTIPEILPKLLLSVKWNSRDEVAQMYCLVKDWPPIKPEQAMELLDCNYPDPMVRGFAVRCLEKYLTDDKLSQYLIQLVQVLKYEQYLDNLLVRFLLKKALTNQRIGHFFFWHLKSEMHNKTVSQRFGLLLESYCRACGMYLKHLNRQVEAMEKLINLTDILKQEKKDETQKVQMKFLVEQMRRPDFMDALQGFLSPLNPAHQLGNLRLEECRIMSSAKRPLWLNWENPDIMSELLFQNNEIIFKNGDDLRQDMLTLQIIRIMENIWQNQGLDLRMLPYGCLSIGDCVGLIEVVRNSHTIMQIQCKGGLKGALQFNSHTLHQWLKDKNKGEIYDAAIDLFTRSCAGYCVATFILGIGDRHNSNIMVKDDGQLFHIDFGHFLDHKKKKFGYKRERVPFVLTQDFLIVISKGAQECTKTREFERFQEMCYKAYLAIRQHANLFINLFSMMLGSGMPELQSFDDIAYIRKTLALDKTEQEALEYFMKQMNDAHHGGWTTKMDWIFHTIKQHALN
Sequence (P27986 whole entry partner): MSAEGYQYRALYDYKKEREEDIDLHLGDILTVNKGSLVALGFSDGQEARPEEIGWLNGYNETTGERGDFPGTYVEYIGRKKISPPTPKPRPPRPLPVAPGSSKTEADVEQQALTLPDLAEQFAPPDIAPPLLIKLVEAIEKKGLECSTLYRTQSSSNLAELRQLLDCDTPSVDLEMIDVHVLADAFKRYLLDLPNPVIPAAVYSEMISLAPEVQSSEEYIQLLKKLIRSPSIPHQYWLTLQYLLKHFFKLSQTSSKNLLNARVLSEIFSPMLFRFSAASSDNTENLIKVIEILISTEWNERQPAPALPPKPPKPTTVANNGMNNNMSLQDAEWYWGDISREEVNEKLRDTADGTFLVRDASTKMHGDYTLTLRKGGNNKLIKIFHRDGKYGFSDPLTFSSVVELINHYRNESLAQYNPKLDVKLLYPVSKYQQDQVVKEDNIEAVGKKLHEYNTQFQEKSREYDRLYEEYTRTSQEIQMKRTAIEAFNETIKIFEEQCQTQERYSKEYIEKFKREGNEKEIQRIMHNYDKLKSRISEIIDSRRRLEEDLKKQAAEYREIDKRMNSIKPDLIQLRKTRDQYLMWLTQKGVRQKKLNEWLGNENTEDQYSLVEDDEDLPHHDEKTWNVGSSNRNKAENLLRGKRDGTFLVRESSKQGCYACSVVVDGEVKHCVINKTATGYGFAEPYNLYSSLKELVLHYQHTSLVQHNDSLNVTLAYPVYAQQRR

Below, each entry is followed by its recorded IC50 result.
{"compound": "Cc1cc(C(C)Nc2sc(C)nc2C(=O)O)c2oc(-c3ccccc3)cc(=O)c2c1 (centres unmarked)", "IC50": "5 to 10 µM"}
{"compound": "Cc1cc(C(C)Nc2cccc(F)c2C(=O)O)c2oc(-c3cccc(F)c3)c(C)c(=O)c2c1 (centres unmarked) [Example 95]", "IC50": "1 to 5 µM"}
{"compound": "CC(Nc1ccccc1C(=O)O)c1cc(F)c(F)c2c(=O)cc(-c3ccccc3)oc12 (centres unmarked)", "IC50": "> 10 µM"}

List the reported IC50 of each compound below.
1. Cc1cc(C(C)Nc2ccc(Cl)nc2C(=O)O)c2oc(-c3ccccc3)c(I)c(=O)c2c1 (single isomer, unassigned; isomer i) [Example 153]
2. Cc1cc([C@@H](C)Nc2ccccc2C(=O)O)c2oc(-c3ccccc3)c(I)c(=O)c2c1
3. Cc1cc(C(C)Nc2ccccc2C(=O)O)c2oc(-c3ccc(N4CCCC4)cc3)cc(=O)c2c1 (single isomer, unassigned; isomer 2) [Example 55]
4. Cc1cc(C(C)Nc2ccccc2C(=O)O)c2oc(-c3ccc(C(=O)N(C)C)cc3)cc(=O)c2c1 (single isomer, unassigned; isomer 2) [Example 50]

["1 to 5 µM", "0.5 to 1 µM", "1 to 5 µM", "> 10 µM"]

For each of the items listed, what is its IC50?
1. Cc1cc([C@@H](C)Nc2ccccc2C(=O)O)c2oc(-c3ccc(-c4c[nH]nc4C)cc3)c(C)c(=O)c2c1
2. Cc1cc(C(C)Nc2ccccc2C(=O)O)c2oc(-c3ccccc3)c(C#N)c(=O)c2c1 (single isomer, unassigned; isomer 1) [Example 61]

1. 0.5 to 1 µM
2. > 10 µM

Provide IC50 values for the following items, in order.
1. Cc1cc(C(C)Nc2ccccc2C(=O)O)c2oc(-c3ccccc3)c(C#N)c(=O)c2c1 (single isomer, unassigned; isomer 2) [Example 62]
2. Cc1cc([C@@H](C)Nc2ccccc2C(=O)O)c2oc(-c3ccccc3)c(-c3cnoc3)c(=O)c2c1
3. Cc1cc([C@@H](C)Nc2ccc(F)c(F)c2C(=O)O)c2oc(-c3ccccc3)c(C)c(=O)c2c1
4. CC(Nc1ccccc1C(=O)O)c1cc(C(F)(F)F)cc2c(=O)cc(-c3ccccc3)oc12 (single isomer, unassigned; isomer 1) [Example 86]
5. Cc1cc([C@@H](C)Nc2ccccc2C(=O)O)c2oc(-c3ccc(C(C)(C)C#N)cc3)cc(=O)c2c1
6. C[C@@H](Nc1ccc(Cl)nc1C(=O)O)c1cc(C(F)(F)F)cc2c(=O)cc(-c3ccc(F)cc3F)oc12
7. Cc1cc([C@@H](C)Nc2ccccc2C(=O)O)c2oc(-c3ccc(F)cc3F)cc(=O)c2c1
8. Cc1cc([C@@H](C)Nc2ccccc2C(=O)O)c2oc(-c3ccc(-c4ncco4)cc3)cc(=O)c2c1

1. < 0.5 µM
2. 1 to 5 µM
3. < 0.5 µM
4. 5 to 10 µM
5. 1 to 5 µM
6. 1 to 5 µM
7. 1 to 5 µM
8. 5 to 10 µM

Items follow; give IC50 for each.
1. CC(Nc1ccccc1C(=O)O)c1cc(C(F)(F)F)cc2c(=O)cc(-c3ccccc3)oc12 (single isomer, unassigned; isomer 2) [Example 87]
2. Cc1c(-c2ccccc2)oc2c([C@@H](C)Nc3ccc(Cl)nc3C(=O)O)cc(C(F)(F)F)cc2c1=O
3. Cc1cc(C(C)Nc2ccc(Cl)nc2C(=O)O)c2oc(-c3ccccc3)c(I)c(=O)c2c1 (single isomer, unassigned; isomer 2) [Example 154]

["5 to 10 µM", "1 to 5 µM", "0.5 to 1 µM"]

Hi there! I need IC50 for each item below, if you can.
1. Cc1cc([C@@H](C)Nc2ccc(Cl)cc2C(=O)O)c2oc(-c3ccc(F)c(F)c3)c(C)c(=O)c2c1
2. Cc1cc(C(C)Nc2ccccc2C(=O)O)c2oc(-c3ccc(C4(C)CC4)cc3)cc(=O)c2c1 (centres unmarked)
3. COc1ccc(NC(C)c2cc(C)cc3c(=O)c(C)c(-c4ccccc4)oc23)c(C(=O)O)n1 (single isomer, unassigned; isomer 2) [Example 110]
4. Cc1cc([C@@H](C)Nc2ccc(Cl)cc2C(=O)O)c2oc(-c3ccccc3)c(C)c(=O)c2c1
5. Cc1cc([C@@H](C)Nc2ccc(C#N)cc2C(=O)O)c2oc(-c3ccccc3)c(C)c(=O)c2c1 (single isomer, unassigned; isomer 1) [Example 157]
6. Cc1cc([C@@H](C)Nc2ccc(C3CC3)nc2C(=O)O)c2oc(-c3ccccc3)c(C)c(=O)c2c1

1: 1 to 5 µM; 2: 5 to 10 µM; 3: 1 to 5 µM; 4: 1 to 5 µM; 5: 5 to 10 µM; 6: 5 to 10 µM

I would be grateful if you could provide IC50 for each of the following entries.
1. COc1ccc(-c2cc(=O)c3cc(C)cc([C@@H](C)Nc4ccccc4C(=O)O)c3o2)cc1
2. Cc1cc([C@@H](C)Nc2ccc(C(F)(F)F)nc2C(=O)O)c2oc(-c3ccccc3)c(C)c(=O)c2c1

1: 1 to 5 µM; 2: 0.5 to 1 µM

If you can, please state the reported IC50 value of "Cc1cc([C@@H](C)Nc2ccc(C(F)(F)F)cc2C(=O)O)c2oc(-c3cccc(C#N)c3)c(C)c(=O)c2c1" .
1 to 5 µM

====

target: human full length PIK3KA H1047R mutant (p110α/p85α complex) (Homo sapiens, UniProt P42336, H1047R); construct: Recombinant, catalytically active human full length PIK3KA Wild-type and H1047R mutant were purchased as 1:1 complex; 6xHis (N); purchased EMD Millipore Sigma 14-792M; experiment: PI3K-alpha kinase (PIK3CA) biochemical activity, H1047R mutant, ADP-Glo; settings: PI3K-α (PIK3CA) biochemical, H1047R mutant, Soy PI lipid substrate
Sequence (P42336 whole entry H1047R, one chain of several): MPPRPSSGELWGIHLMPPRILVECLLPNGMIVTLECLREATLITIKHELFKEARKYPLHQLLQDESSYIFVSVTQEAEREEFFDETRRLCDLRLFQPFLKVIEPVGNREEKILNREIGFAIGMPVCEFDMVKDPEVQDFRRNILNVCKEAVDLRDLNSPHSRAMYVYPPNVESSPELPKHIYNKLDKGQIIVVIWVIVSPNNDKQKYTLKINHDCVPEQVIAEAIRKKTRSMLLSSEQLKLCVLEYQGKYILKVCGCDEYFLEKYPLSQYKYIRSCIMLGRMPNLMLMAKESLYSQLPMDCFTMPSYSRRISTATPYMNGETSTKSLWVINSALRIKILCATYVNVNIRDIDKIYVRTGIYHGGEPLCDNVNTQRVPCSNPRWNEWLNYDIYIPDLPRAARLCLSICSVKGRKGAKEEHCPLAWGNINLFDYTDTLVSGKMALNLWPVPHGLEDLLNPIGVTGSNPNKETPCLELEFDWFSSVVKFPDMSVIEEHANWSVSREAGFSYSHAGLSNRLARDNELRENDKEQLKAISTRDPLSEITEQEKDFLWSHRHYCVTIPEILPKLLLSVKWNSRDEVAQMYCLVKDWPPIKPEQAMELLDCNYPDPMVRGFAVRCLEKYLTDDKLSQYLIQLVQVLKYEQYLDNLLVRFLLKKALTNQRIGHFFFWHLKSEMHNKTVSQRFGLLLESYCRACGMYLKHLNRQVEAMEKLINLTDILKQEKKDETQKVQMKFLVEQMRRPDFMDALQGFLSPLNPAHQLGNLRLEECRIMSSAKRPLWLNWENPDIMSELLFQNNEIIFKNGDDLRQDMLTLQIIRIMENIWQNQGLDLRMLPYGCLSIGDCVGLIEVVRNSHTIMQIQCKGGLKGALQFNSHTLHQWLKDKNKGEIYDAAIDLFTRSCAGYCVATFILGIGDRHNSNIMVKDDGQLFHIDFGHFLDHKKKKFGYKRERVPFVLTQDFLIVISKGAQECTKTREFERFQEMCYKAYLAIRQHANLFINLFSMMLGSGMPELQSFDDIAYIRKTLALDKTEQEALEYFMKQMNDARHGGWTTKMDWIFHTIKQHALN
property-measured: IC50

Please review the following examples before continuing.
{"molecule": "Cc1cc([C@@H](C)Nc2ccccc2C(=O)O)c2oc(-c3ccc(-c4c[nH]nc4C)cc3)c(C)c(=O)c2c1", "IC50": "< 500 nM"}
{"molecule": "Cc1cc([C@@H](C)Nc2ccc(C(F)(F)F)cc2C(=O)O)c2oc(-c3ccccc3)cc(=O)c2c1", "IC50": "< 500 nM"}

Hey, can you go through the list below and give me IC50 for every item?
1. Cc1cc([C@@H](C)Nc2ccccc2C(=O)O)c2oc(-c3cccc(C(C)(C)C#N)c3)c(C)c(=O)c2c1
2. Cc1cc(C(C)Nc2ccccc2C(=O)O)c2oc(-c3ccccc3)c(C#N)c(=O)c2c1 (single isomer, unassigned; isomer 1) [Example 61]
3. Cc1cc([C@@H](C)Nc2ccc(F)c(F)c2C(=O)O)c2oc(-c3ccccc3)c(C)c(=O)c2c1
4. Cc1cc(C(C)Nc2ccccc2C(=O)O)c2oc(-c3ccc(S(C)(=O)=O)cc3)cc(=O)c2c1 (single isomer, unassigned; isomer 1) [Example 47]

["< 500 nM", "> 10000 nM", "< 500 nM", "> 10000 nM"]

====

Please go through the items and note down their IC50.
target: human full length PIK3KA Wild-type (p110α/p85α complex) (Homo sapiens, UniProt P42336); construct: Recombinant, catalytically active human full length PIK3KA Wild-type and H1047R mutant were purchased as 1:1 complex; 6xHis (N); purchased EMD Millipore Sigma 14-602M; test: PI3K-alpha kinase (PIK3CA) biochemical activity, wild-type, ADP-Glo; conditions: PI3K-α (PIK3CA) biochemical, Soy PI lipid substrate

Worked cases, IC50 given:
{"molecule": "Cc1cc([C@@H](C)Nc2ccccc2C(=O)O)c2oc(-c3cccc(-c4cn[nH]c4)c3)c(C)c(=O)c2c1 [Example 167]", "property-measured": "IC50", "result": "0.5 to 1 µM"}
{"molecule": "Cc1cc(C(C)Nc2ccccc2C(=O)O)c2oc(-c3ccccc3)c(F)c(=O)c2c1 (centres unmarked) [Example 111]", "property-measured": "IC50", "result": "1 to 5 µM"}

I have 6 molecules here; please give me IC50 for each one.
1. Cc1cc([C@@H](C)Nc2ccc(C)nc2C(=O)O)c2oc(-c3cccc(F)c3)c(C)c(=O)c2c1 [Example 134]
2. Cc1cc([C@@H](C)Nc2ccccc2C(=O)O)c2oc(-c3ccc(C#N)c(F)c3)cc(=O)c2c1 [Example 56]
3. Cc1cc(C(C)Nc2ccccc2C(=O)O)c2oc(-c3cccc(C(C)(C)C#N)c3)cc(=O)c2c1 (single isomer, unassigned; isomer 1) [Example 4]
4. Cc1cc([C@@H](C)Nc2ccccc2C(=O)O)c2oc(-c3cccc(C#N)c3)c(C)c(=O)c2c1 [Example 30]
5. Cc1cc([C@@H](C)Nc2cccnc2C(=O)O)c2oc(-c3cccc(F)c3)c(C)c(=O)c2c1 [Example 136]
6. Cc1cc([C@@H](C)Nc2cnccc2C(=O)O)c2oc(-c3ccccc3)c(C)c(=O)c2c1 [Example 138]

5 to 10 µM
1 to 5 µM
> 10 µM
0.5 to 1 µM
5 to 10 µM
> 10 µM
